This section presents binders with their documented MFI at 50 nM values.
Study Target: PD-1 expressed on cells (human)
Sequence (chain, as listed by the source): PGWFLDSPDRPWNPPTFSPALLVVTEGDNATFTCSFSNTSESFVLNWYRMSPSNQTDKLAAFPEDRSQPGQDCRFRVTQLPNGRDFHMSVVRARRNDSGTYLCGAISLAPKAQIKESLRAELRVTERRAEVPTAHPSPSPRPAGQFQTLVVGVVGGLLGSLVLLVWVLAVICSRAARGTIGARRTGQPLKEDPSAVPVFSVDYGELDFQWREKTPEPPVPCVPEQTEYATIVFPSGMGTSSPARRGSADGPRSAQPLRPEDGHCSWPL
Protocol Text: flow cytometry, Jurkat/PD-1 cells

// fetch MFI at 50 nM given entry variant PD-L2 IgV-Fc Q82R, V89D (Fc fusion) LFTVTVPKELYIIEHGSNVTLECNFDTGSHVNLGAITASLQKVENDTSPHRERATLLEEQLPLGKASFHIPQVQVRDEGQYRCIIIYGDAWDYKYLTLKVKA
45000

// fetch MFI at 50 nM given entry variant PD-L2 IgV-Fc G28V, Q72H, R76G, I86T (Fc fusion) LFTVTVPKELYIIEHGSNVTLECNFDTVSHVNLGAITASLQKVENDTSPHRERATLLEEQLPLGKASFHIPHVQVGDEGQYQCIITYGVAWDYKYLTLKVKA
5560

// fetch MFI at 50 nM given entry variant PD-L2 IgV-Fc H15Q, T47A, Q72H, R76G, I86T (Fc fusion) LFTVTVPKELYIIEQGSNVTLECNFDTGSHVNLGAITASLQKVENDASPHRERATLLEEQLPLGKASFHIPHVQVGDEGQYQCIITYGVAWDYKYLTLKVKA
32100

// fetch MFI at 50 nM given entry variant PD-L2 IgV-Fc H15Q, V89D (Fc fusion) LFTVTVPKELYIIEQGSNVTLECNFDTGSHVNLGAITASLQKVENDTSPHRERATLLEEQLPLGKASFHIPQVQVRDEGQYQCIIIYGDAWDYKYLTLKVKA
17700
